Recorded log10 Ki values for a group of compounds are listed next.
target or system: Delta-type opioid receptor (Mus musculus, UniProt P32300)
Sequence (P32300 whole entry): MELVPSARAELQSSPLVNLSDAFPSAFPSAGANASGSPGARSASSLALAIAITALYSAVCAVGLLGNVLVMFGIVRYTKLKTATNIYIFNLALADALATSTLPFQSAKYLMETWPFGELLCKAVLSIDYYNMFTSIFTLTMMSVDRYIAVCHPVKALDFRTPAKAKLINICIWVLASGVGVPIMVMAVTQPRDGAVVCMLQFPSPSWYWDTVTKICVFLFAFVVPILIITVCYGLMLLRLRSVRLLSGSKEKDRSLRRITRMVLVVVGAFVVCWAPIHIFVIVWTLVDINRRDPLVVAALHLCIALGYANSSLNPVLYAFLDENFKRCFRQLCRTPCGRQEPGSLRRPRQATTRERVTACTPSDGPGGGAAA
assay protocol: Inhibition of [3H]-NTI binding to Opioid receptor delta 1 from mouse brain membranes.
property name: log10 Ki (log10 of the value in nM)

• O=C1[C@@H]2Oc3c(O)ccc4c3[C@@]23CCN(CC2CC2)[C@H](C4)[C@]3(O)CC12Cc1ccccc1C2 = -0.60
• O=C1[C@@H]2Oc3c(O)ccc4c3C23CCN(CC2CC2)C(C4)[C@]3(O)C[C@]12CCc1ccccc1C2 (stereo partly drawn) = -2.72
• O=C1[C@@H]2Oc3c(O)ccc4c3C23CCN(CC2CC2)C(C4)[C@]3(O)C[C@@]12CCc1ccccc1C2 (stereo partly drawn) = -2.39
• CN1CCC23c4c5ccc(O)c4O[C@H]2C(=O)[C@@]2(CCc4ccccc4C2)C[C@@]3(O)C1C5 (stereo partly drawn) = 0.66
• CN1CCC23c4c5ccc(O)c4O[C@H]2C(=O)[C@]2(CCc4ccccc4C2)C[C@H]3C1C5 (stereo partly drawn) = 2.26
• CN1CCC23c4c5ccc(O)c4O[C@H]2C(=O)[C@]2(CCc4ccccc4C2)C[C@@]3(O)C1C5 (stereo partly drawn) = 0.97
• CN1CCC23c4c5ccc(O)c4O[C@H]2C(=O)[C@@]2(CCc4ccccc4C2)C[C@H]3C1C5 (stereo partly drawn) = 0.92
• CN1CC[C@]23c4c5ccc(O)c4O[C@H]2C(=O)C2(Cc4ccccc4C2)C[C@@]3(O)[C@H]1C5 [SPIROINDANYLOXYMORPHONE] = 0.45

* * *

target or system: Mu-type opioid receptor (Mus musculus, UniProt P42866)
Sequence (P42866 whole entry): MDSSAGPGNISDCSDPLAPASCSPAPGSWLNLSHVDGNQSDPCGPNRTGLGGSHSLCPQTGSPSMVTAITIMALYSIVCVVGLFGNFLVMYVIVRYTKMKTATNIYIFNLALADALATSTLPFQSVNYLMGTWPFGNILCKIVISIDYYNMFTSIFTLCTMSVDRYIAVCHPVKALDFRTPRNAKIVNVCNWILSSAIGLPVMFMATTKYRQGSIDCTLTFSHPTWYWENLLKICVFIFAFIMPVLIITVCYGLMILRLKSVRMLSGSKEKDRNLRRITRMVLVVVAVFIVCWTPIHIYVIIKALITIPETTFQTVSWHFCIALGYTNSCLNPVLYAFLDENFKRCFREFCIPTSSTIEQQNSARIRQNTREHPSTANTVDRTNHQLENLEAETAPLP
pKi: −log10 of the molar value.
Decision: pKi >= 8 yields Satisfied, all other cases yield Not satisfied.

- CN1CCC23c4c5ccc(O)c4O[C@H]2C(=O)[C@]2(CCc4ccccc4C2)C[C@@]3(O)C1C5 (stereo partly drawn): Not satisfied
- O=C1[C@@H]2Oc3c(O)ccc4c3[C@@]23CCN(CC2CC2)[C@H](C4)[C@]3(O)CC12Cc1ccccc1C2: Satisfied
- CN1CCC23c4c5ccc(O)c4O[C@H]2C(=O)[C@@]2(CCc4ccccc4C2)C[C@@]3(O)C1C5 (stereo partly drawn): Not satisfied
- CN1CCC23c4c5ccc(O)c4O[C@H]2C(=O)[C@@]2(CCc4ccccc4C2)C[C@H]3C1C5 (stereo partly drawn): Satisfied
- O=C1[C@@H]2Oc3c(O)ccc4c3C23CCN(CC2CC2)C(C4)[C@]3(O)C[C@@]12CCc1ccccc1C2 (stereo partly drawn): Satisfied
- CN1CCC23c4c5ccc(O)c4O[C@H]2C(=O)[C@]2(CCc4ccccc4C2)C[C@H]3C1C5 (stereo partly drawn): Not satisfied
- O=C1[C@@H]2Oc3c(O)ccc4c3C23CCN(CC2CC2)C(C4)[C@]3(O)C[C@]12CCc1ccccc1C2 (stereo partly drawn): Satisfied

* * *

Form: system (Kappa-type opioid receptor (Mus musculus, UniProt P33534)), quantity (pKi), values below.
pKi: −log10 of the molar value.
property name: pKi

* O=C1[C@@H]2Oc3c(O)ccc4c3C23CCN(CC2CC2)C(C4)[C@]3(O)C[C@@]12CCc1ccccc1C2 (some centres undefined) | 6.83
* CN1CCC23c4c5ccc(O)c4O[C@H]2C(=O)[C@@]2(CCc4ccccc4C2)C[C@H]3C1C5 (some centres undefined) | 7.06
